Test system: NCI/ADR-RES complex spheroid viability
run description: Anticancer human tumor NCI/ADR-RES cell line growth inhibition;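 also: spheroids exposed to compounds for 7 days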
details: compound alone; run of 11/29/2021

molecule	system tested	IC50
NC1CCC(NC2CC2c2ccccc2)CC1 (stereo unspecified)	NCI/ADR-RES complex spheroid viability	> 10 µM

====

# key: entry, value: viability, T/C
Tested on: NCI/ADR-RES complex spheroid viability
run description: Anticancer human tumor NCI/ADR-RES cell line growth inhibition;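 also: spheroids exposed to compounds for 7 days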;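 as to viability, T/C: 100% = DMSO vehicle treated spheroids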
details: second compound 0.316 µM; first compound 0.000316 µM; stronger effect = lower value

compound	viability, T/C, %
CC(C)CC(NC(=O)CNC(=O)c1cc(Cl)ccc1Cl)B1OC(=O)CC(CC(=O)O)(C(=O)O)O1 (stereo not drawn) + NC1CC1c1ccc(-c2cccc(O)c2)cc1	109
CC[C@@]1(O)C(=O)OCc2c1cc1n(c2=O)Cc2cc3c(CN(C)C)c(O)ccc3nc2-1 + NC1CC1c1ccc(-c2cccc(O)c2)cc1	111
CC[C@@]1(O)C(=O)OCc2c1cc1n(c2=O)Cc2cc3c(CN(C)C)c(O)ccc3nc2-1 + NC1CCC(NC2CC2c2ccccc2)CC1	118
Cn1ncnc1C1c2n[nH]c(=O)c3cc(F)cc(c23)NC1c1ccc(F)cc1 (stereo not drawn) + NC1CC1c1ccc(-c2cccc(O)c2)cc1	104
CC(C)CC(NC(=O)C(Cc1ccccc1)NC(=O)c1cnccn1)B(O)O (stereo not drawn) + NC1CCC(NC2CC2c2ccccc2)CC1	111
CC(C)CC(NC(=O)C(Cc1ccccc1)NC(=O)c1cnccn1)B(O)O (stereo not drawn) + NC1CC1c1ccc(-c2cccc(O)c2)cc1	103
Cn1ncnc1C1c2n[nH]c(=O)c3cc(F)cc(c23)NC1c1ccc(F)cc1 (stereo not drawn) + NC1CCC(NC2CC2c2ccccc2)CC1	109
CC(C)CC(NC(=O)CNC(=O)c1cc(Cl)ccc1Cl)B1OC(=O)CC(CC(=O)O)(C(=O)O)O1 (stereo not drawn) + NC1CCC(NC2CC2c2ccccc2)CC1	105
